biological target: hNPFF1 (Homo sapiens, UniProt Q9GZQ6); assay: Binding affinity at cloned recombinant human NPFF1 receptor
Sequence (Q9GZQ6 whole entry): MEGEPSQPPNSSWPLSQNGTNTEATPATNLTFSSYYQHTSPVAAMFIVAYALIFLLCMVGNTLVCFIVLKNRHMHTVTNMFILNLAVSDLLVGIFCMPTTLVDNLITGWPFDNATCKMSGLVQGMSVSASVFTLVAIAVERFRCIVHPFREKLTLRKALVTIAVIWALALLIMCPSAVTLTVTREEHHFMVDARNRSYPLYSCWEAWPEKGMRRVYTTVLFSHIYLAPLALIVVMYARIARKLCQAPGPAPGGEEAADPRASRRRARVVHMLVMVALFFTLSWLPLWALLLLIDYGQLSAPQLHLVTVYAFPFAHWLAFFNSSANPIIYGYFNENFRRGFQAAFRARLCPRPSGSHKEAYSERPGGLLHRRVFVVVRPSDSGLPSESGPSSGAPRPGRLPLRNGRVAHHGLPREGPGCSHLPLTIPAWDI
Measured pKi, listed per entry for reference.
As a rule, pKi stands for the negative log10 of the concentration, concentration in M.

Cc1nc(NC(=N)N)nc2ccc3ccccc3c12
7.28
Cc1ccc2nc(NC(=N)N)cc(C)c2c1
7.68
CCCCCCc1ccc2nc(NC(=N)N)cc(C)c2c1
6.82
Cc1cc(NC(=N)N)nc2ccc3ccccc3c12
6.84
Cc1ccc2c(C)nc(NC(=N)N)nc2c1
7.34
Cc1cc(NC(=N)N)nc2c(C)cccc12
6.80

Input line: Supply reported pKi belonging to this compound: Cc1ccc2c(C)cc(NC(=N)N)nc2c1
Output line: 7.89

Input line: Supply reported pKi belonging to this compound: Cc1cc(NC(=N)N)nc2ccc(Cl)cc12
Output line: 7.62
